experiment: Plasma clearance in BALB/C mouse at 5 mg/kg, iv; assay type: ADME, organism-based; parameters: dose 5 mg/kg, route intravenous

- smi: "COc1cc(NCC2CCNCC2)nc2c1nnn2-c1cccc(OC(F)(F)F)c1"
  clearance: "3.28 L/h/kg"

---

assay: Half life in BALB/C mouse plasma at 5 mg/kg, iv; format: ADME, organism-based; parameters: dose 5 mg/kg, route intravenous

- smi: "COc1cc(NCC2CCNCC2)nc2c1nnn2-c1cccc(OC(F)(F)F)c1"
  half-life: "57 min"

---

assay: Metabolic stability in CD-1 mouse liver microsomes assessed as compound remaining at 1 uM after 15 mins; type: ADME, Microsome; settings: read-out: Stability

- smi: "COc1cc(NCC2CCNCC2)nc2c1nnn2-c1cccc(OC(F)(F)F)c1"
  remaining at […], 1 µM: "80%"

---

test: Metabolic stability in human liver microsomes assessed as compound remaining at 1 uM after 15 mins; type: ADME, Microsome; details: read-out: Stability
readout.kind: remaining at […], 1 µM (%)

- smi: "COc1cc(NCC2CCNCC2)nc2c1nnn2-c1cccc(OC(F)(F)F)c1"
  readout.kind: "remaining at […], 1 µM"
  units.text: "%"
  observed.value: 97

Origin of values: ChEMBL document CHEMBL1949661
